# System: IgG of CSF from patients suffering from MS
# experiment-description: ELISA of polypeptides, IgG response of CSFs diluted 1/10 (Table 5, FIGS. 7A and 7B)
# Format: binding, human
# Design: key: positive (+) if the OD value at 492 nm for a 1/10 dilution of the CSF is greater than the mean values obtained for the CSFs from the ND patients+3 times the standard deviation
# assay-conditions: CSF of MS patient 7, 1/10
result-type: IgG recognition by CSF

- MPVSRLCIELDWCPP (MSRV) [SEQ ID NO: 12]: +
- EPMTPHQWITLYRSY (MSRV) [SEQ ID NO: 14]: +
- RGTQEWTELWVSFRA (MSRV) [SEQ ID NO: 19]: +
- FCPPILPYSAWCPVP (MSRV) [SEQ ID NO: 13]: +
- SRGSHEWAVLFRFYY (MSRV) [SEQ ID NO: 16]: +
